Value source: patent US20220411492A1

target_desc: human Claudin 18.2 (hCLDN18.2) (human, UniProt P56856-2 1-261)
assay_comment: cell-based or functional assay
Below, each entry is listed alongside its reported ADCC EC50.
Numeric only. Scale: µg/mL

Can you share its ADCC EC50? I mean this binder: hu299B2-S32A-3 (antibody, V domains shown, also called humanized antibody hu299B2-S32A) VH: QVQLVQSGAEVKKPGASVKVSCKASGYIFTNYWIHWVRQAPGQGLEWMGRIYPGTGNTYYNEKFTGRVTMTRDTSTSTVYMELSSLRSEDTAVYYCAREGYGKGNSMDYWGQGTTVTVSS VL: DIVMTQSPDSLAVSLGERVTMNCKSSQSLLNAGNQKNYLTWYQQKPGQPPKLLFYWASTRESGVPDRFSGSGSGTDFTLTISSVQAEDVAVYHCQNAYYYPYTFGGGTKLEIK
0.022

Can you share its ADCC EC50? I mean this binder: hu299B2-S32A-1 (antibody, V domains shown, also called humanized antibody hu299B2-S32A) VH: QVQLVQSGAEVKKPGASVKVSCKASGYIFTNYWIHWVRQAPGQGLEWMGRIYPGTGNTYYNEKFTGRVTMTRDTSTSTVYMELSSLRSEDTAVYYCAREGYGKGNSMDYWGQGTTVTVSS VL: DIVMTQSPDSLAVSLGERATINCKSSQSLLNAGNQKNYLTWYQQKPGQPPKLLIYWASTRESGVPDRFSGSGSGTDFTLTISSLQAEDVAVYYCQNAYYYPYTFGGGTKLEIK
0.022

Can you share its ADCC EC50? I mean this binder: hu299B2-S32A-2 (antibody, V domains shown, also called humanized antibody hu299B2-S32A) VH: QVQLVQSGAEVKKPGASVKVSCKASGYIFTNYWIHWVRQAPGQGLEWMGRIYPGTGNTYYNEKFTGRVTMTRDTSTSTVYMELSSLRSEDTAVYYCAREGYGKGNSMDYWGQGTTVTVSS VL: DIVMTQSPDSLAVSLGERATMNCKSSQSLLNAGNQKNYLTWYQQKPGQPPKLLFYWASTRESGVPDRFSGSGSGTDFTLTISSLQAEDVAVYHCQNAYYYPYTFGGGTKLEIK
0.028

Next:
Can you share its ADCC EC50? I mean this binder: hu299B2-S32A-4 (antibody, V domains shown, also called humanized antibody hu299B2-S32A) VH: QVQLVQSGAEVKKPGASVKVSCKTSGYIFTNYWIHWVRQAPGQGLEWMGRIYPGTGNTYYNEKFTGRVTLTADTSTSTVYMELSSLRSEDTAVYYCSREGYGKGNSMDYWGQGTTVTVSS VL: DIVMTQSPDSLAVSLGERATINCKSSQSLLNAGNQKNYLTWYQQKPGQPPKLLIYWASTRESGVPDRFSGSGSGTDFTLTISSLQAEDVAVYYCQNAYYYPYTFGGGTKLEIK
0.024
